molecular target: T1, MART-1 peptide on HLA-A*02:01 (human); test: data from [107]; method not given; soluble, other
T1 peptide: AAGIGILTV
Quantity: Kd (µM)

binder="DMF5 (TCR) alpha TRAV12-2*01 CDR3: AVNFGGGKLI beta TRBV6-4*01 CDR3: ASSLSFGTEAF" quantity=Kd test_value=40

Source: paper PMC7793522
